Listed below: pEC50 values for each entry.
Tested on: SKBR3 cells express WT PI3Ka
Method: In vitro cell proliferation, SKBR3 cells (CellTiter-Glo)
Format: cell-based
Experimental Conditions: Homo sapiens, SK-BR-3, 72 h, inhibition of proliferation
pEC50: −log10 of the molar value.

// solved cases for pEC50 follow
{"columns": ["Compound", "Recorded Result"],
 "data": [
  ["C[C@@H](Nc1ccccc1C(=O)O)c1cc(F)cc2c(=O)n(C)c(N3C4CCC3CN(CC(F)(F)F)C4)cc12 [Example 464]", "4.82 to 5.70"],
  ["Cc1cc([C@@H](C)Nc2ccccc2C(=O)O)c2cc(N3CCN(c4cnn(C)c4)CC3)n(C)c(=O)c2c1 [Example 220]", "< 4.82"]
]}

Entry C[C@@H](Nc1cccc(F)c1C(=O)O)c1cc(F)cc2c(=O)n(C)c(C3C[C@@H]3C(F)(F)F)cc12 (single isomer, unassigned) [Example 427] under SKBR3 cells express WT PI3Ka had pEC50 of < 4.82

pEC50 of Cc1cc([C@@H](C)Nc2ccccc2C(=O)O)c2cc(-c3cnc(C(F)(F)F)c(F)c3)n(C)c(=O)c2c1 [Example 295] , assay on SKBR3 cells express WT PI3Ka, is < 4.82

Noted pEC50 for Cc1cc(C(C)Nc2ccccc2C(=O)O)c2cc(N3CCN(c4ccc(C)nc4)CC3)n(C)c(=O)c2c1 (single isomer, unassigned) [Example 145] , tested on SKBR3 cells express WT PI3Ka: 4.82 to 5.70

* * *

System: SKBR3 cells express WT PI3Ka
Method: In vitro cell proliferation, SKBR3 cells (CellTiter-Glo)
Format: cell-based
Experimental Conditions: Homo sapiens, SK-BR-3, 72 h, inhibition of proliferation
Form field: EC50 (one value per entry).

{"columns": ["Compound", "Recorded Result"],
 "data": [
  ["Cc1ccc(-c2ncc(-c3cc4c([C@@H](C)Nc5ccccc5C(=O)O)cc(F)cc4c(=O)n3C)cc2F)c(C)n1", "2 to 15 µM"],
  ["Cc1cc(C(C)Nc2ccc(Cl)nc2C(=O)O)c2cc(N3CCC(C)(C)CC3)n(C)c(=O)c2c1 (single isomer, unassigned) [Example 3]", "2 to 15 µM"],
  ["C[C@@H](Nc1ccccc1C(=O)O)c1cc(F)cc2c(=O)n(C)c(-c3cnc(C4CC4)s3)cc12", "> 15 µM"]
]}

get_value(item= Cc1cc([C@@H](C)Nc2ccccc2C(=O)O)c2cc(N3CCn4ncnc4C3)n(C)c(=O)c2c1 , readout=EC50) returns > 15 µM

The recorded EC50 for Cc1cc(C(C)Nc2ccccc2C(=O)O)c2cc(N3CCN(C)CC3)n(C)c(=O)c2c1 (single isomer, unassigned) [Example 12] is > 15 µM

Measured EC50 of CCOc1ncc(-c2cc3c([C@@H](C)Nc4cccc(F)c4C(=O)O)cc(F)cc3c(=O)n2C)s1 : > 15 µM

* * *

Tested on: SKBR3 cells express WT PI3Ka
Method: In vitro cell proliferation, SKBR3 cells (CellTiter-Glo)
Format: cell-based
Experimental Conditions: Homo sapiens, SK-BR-3, 72 h, inhibition of proliferation
Readout Name: EC50

{"columns": ["Smiles Input", "EC50"],
 "data": [
  ["Cc1cc([C@@H](C)Nc2ccccc2C(=O)O)c2cc(-c3cnc(C4CC4)nc3)n(C)c(=O)c2c1", "> 15 µM"],
  ["COCc1ncc(-c2cc3c([C@@H](C)Nc4ccccc4C(=O)O)cc(C)cc3c(=O)n2C)cc1F", "> 15 µM"]
]}

// C[C@@H](Nc1ccccc1C(=O)O)c1cc(F)cc2c(=O)n(C)c(C34CC(CC(F)(F)F)(C3)C4)cc12 : EC50 value = > 15 µM

Kindly note the recorded EC50 for Cc1cc([C@@H](C)Nc2ccccc2C(=O)O)c2cc(N3CCN(c4cnc(C)nc4)CC3)n(C)c(=O)c2c1 , which is 2 to 15 µM

The value of EC50 measured for the compound C[C@@H](Nc1cccc(F)c1C(=O)O)c1cc(F)cc2c(=O)n(C)c(N3C4CCC3CN(CC(F)(F)F)C4)cc12 turned out to be > 15 µM

Entry source: patent US20260078103A1
